Listing: solubility (mole fraction) of selected molecules
conditions: in isopropanol, 273.15 K
Answer with a number only.

Could you please provide reported solubility (mole fraction) for Nc1cccc2cccc(N)c12 ? Thanks!
0.0221

Could you please provide reported solubility (mole fraction) for Nc1cccc2c(N)cccc12 ? Thanks!
0.000471

----------
conditions: in toluene, 308.15 K
Listing: solubility (mole fraction) of selected molecules

- Nc1cccc2cccc(N)c12: 0.163

Could you please provide reported solubility (mole fraction) for Nc1cccc2c(N)cccc12 ? Thanks!
0.0012

----------
conditions: in acetonitrile, 313.15 K
Listing: solubility (mole fraction) of selected compounds
Answer with a number only.

* Nc1cccc2cccc(N)c12 | 0.231

# ---- query compound ----
Could you please provide reported solubility (mole fraction) for Nc1cccc2c(N)cccc12 ? Thanks!
0.00983

----------
Listing: solubility (mole fraction) of selected compounds
settings: in n-propanol, 308.15 K
Answer with a number only.

* Nc1cccc2cccc(N)c12 | 0.142

# ---- query compound ----
Could you please provide reported solubility (mole fraction) for Nc1cccc2c(N)cccc12 ? Thanks!
0.00192

----------
conditions: in toluene, 313.15 K
Listing: solubility (mole fraction) of selected compounds
Answer with a number only.

- Nc1cccc2c(N)cccc12: 0.0014

Could you please provide reported solubility (mole fraction) for Nc1cccc2cccc(N)c12 ? Thanks!
0.189

Entry source: BigSolDB 2.1
